Attribution: patent US11999727B2

Below, each entry is listed with its recorded IC50.
# target.entity: PRMT5 (Homo sapiens, UniProt O14744)
# Construct: purchased Viva (custom protein)
# Sequence (O14744 whole entry): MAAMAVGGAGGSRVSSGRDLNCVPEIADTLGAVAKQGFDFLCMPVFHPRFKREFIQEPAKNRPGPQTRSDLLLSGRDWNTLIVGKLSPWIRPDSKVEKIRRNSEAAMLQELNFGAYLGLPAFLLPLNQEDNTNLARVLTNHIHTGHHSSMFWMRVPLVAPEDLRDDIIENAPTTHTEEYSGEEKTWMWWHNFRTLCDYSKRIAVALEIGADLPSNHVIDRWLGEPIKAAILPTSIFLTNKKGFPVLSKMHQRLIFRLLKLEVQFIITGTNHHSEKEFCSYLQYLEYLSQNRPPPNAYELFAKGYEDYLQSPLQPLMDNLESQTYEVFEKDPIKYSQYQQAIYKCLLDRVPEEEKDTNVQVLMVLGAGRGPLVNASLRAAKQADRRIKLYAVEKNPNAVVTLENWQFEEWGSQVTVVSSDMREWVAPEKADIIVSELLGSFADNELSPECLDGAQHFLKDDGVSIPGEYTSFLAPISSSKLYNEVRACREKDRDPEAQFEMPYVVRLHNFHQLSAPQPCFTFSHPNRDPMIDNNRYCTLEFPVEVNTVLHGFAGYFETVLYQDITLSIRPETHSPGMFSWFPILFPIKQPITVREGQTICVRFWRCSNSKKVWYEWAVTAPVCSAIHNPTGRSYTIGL
# Sequence (Q9BQA1 whole entry partner): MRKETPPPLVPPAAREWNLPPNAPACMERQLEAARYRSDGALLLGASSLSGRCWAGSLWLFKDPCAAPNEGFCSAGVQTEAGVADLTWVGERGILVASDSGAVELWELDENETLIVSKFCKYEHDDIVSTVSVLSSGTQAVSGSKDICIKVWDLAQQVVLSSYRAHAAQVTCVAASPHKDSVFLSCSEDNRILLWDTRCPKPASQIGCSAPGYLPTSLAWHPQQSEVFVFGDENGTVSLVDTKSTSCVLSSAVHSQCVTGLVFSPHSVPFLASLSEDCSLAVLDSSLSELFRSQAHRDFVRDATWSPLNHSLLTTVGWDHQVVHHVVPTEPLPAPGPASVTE
# test.protocol: PRMT5 biochemical IC50 assay with SAM as cofactor
# run.parameters: PRMT5, SAM as cofactor; read-out: SAM IC50

| compound | result |
| --- | --- |
| CCc1cc(NC(=O)C(=O)N2C[C@@H](C)CC[C@@H]2c2ccc3sc(N4CCN(C)CC4)nc3c2)cnc1N | 50 to 500 nM |

# input for lookup
// compound Cc1cccc([C@@H]2CCCCN2C(=O)C(=O)Nc2cnc(N)c(C)c2)c1 (single isomer, unassigned) , assay PRMT5 (Homo sapiens, UniProt O14744), IC50 value: > 500 nM

====

# target.entity: PRMT5 (Homo sapiens, UniProt O14744)
# Construct: purchased Viva (custom protein)
# test.protocol: PRMT5 biochemical IC50 assay with no cofactor
# run.parameters: PRMT5, no cofactor; read-out: No Cofactor/rel IC50
pIC50: −log10 of the molar value.
outcome.measure: pIC50

// known answers, use as guide
| compound | target.entity | pIC50 |
| --- | --- | --- |
| C[C@@H]1CC[C@@H](c2ccc(N3CCCC3)nc2)N(C(=O)C(=O)Nc2cncc(C(N)=O)c2)C1 (racemic) [Compound 207] | PRMT5 (Homo sapiens, UniProt O14744) | 6.30 to 7.30 |
| Cc1cc(NC(=O)C(=O)N2C[C@@H](C)CC[C@@H]2c2ccc(C(F)F)nc2)cnc1N (single isomer, unassigned) [Compound 1018] | PRMT5 (Homo sapiens, UniProt O14744) | 6.30 to 7.30 |

For the next question, use this compound.
Per the records, this compound ( CCc1cc(NC(=O)C(=O)N2C[C@@H](C)CC[C@@H]2c2ccc(C(N)=O)s2)cnc1N (single isomer, unassigned) [Compound 845] ) has pIC50 equal to < 6.30

====

Form field: IC50 (one value per entry).
# target.entity: PRMT5 (Homo sapiens, UniProt O14744)
# Construct: purchased Viva (custom protein)
# test.protocol: PRMT5 biochemical IC50 assay with MTA as cofactor
# run.parameters: PRMT5, MTA as cofactor; read-out: MTA IC50

These solved cases illustrate the format of a correct answer.
| molecule | IC50 |
| --- | --- |
| CCc1cc(NC(=O)C(=O)N2C[C@@H](C)CC[C@@H]2c2cccc([C@H]3CCCN(C)C3)c2)cnc1N (single isomer, unassigned) [Compound 1353] | < 50 nM |
| C[C@H]1CC[C@H](c2ccc3sc(CCN4CCCC4)nc3c2)N(C(=O)C(=O)Nc2cnc(N)c(C3COC3)c2)C1 [Compound 1379] | < 50 nM |
| Cc1cncc(NC(=O)C(=O)N2C[C@@H](C)CC[C@@H]2c2cccc(Cl)c2)c1 (single isomer, unassigned) [Compound 87] | 50 to 500 nM |
| NC(=O)c1cncc(NC(=O)C(=O)N2CC[C@@H]3CCCC[C@@H]3C2)c1 (racemic) [Compound 429] | 50 to 500 nM |
| Cc1cc(NC(=O)C(=O)N2C[C@@H](C)CC[C@@H]2c2ccc(F)c(F)c2)cnc1N (single isomer, unassigned) [Compound 472] | > 500 nM |

Field IC50 (entry CNc1cccc([C@@H]2CC[C@@H](C)CN2C(=O)C(=O)Nc2cnc(N)c(C)c2)c1 (single isomer, unassigned) [Compound 449] ) reads < 50 nM

Given item CCc1cc(NC(=O)C(=O)N2C[C@@H](C)[C@H](OC)C[C@@H]2c2cccc(OCCN(C)C)c2)cnc1N (racemic) [Compound 1172] , the value recorded as its IC50 is < 50 nM

====

# target.entity: PRMT5 (Homo sapiens)
# Construct: purchased Viva (custom protein)
# test.protocol: PRMT5 biochemical IC50 assay with no cofactor
# run.parameters: PRMT5, no cofactor; read-out: No Cofactor/rel IC50
The entries below come with measured IC50 values attached.

Some compounds with known IC50 results, for comparison:
| compound | IC50 |
| --- | --- |
| C[C@@H]1CC[C@@H](c2ccc3[nH]c(=O)ccc3c2)N(C(=O)C(=O)Nc2cncc(C(N)=O)c2)C1 (racemic) [Compound 670] | 50 to 500 nM |
| CCc1cc(NC(=O)C(=O)N2C[C@H](C)CC[C@H]2c2ccccc2)cnc1N (single isomer, unassigned) | < 50 nM |
| Cc1cc(NC(=O)C(=O)N2C[C@@H](C)CC[C@@H]2c2ccc(C(N)=O)s2)cnc1N (single isomer, unassigned) | < 50 nM |

For this compound ( CNC(=O)c1ccc([C@H]2CC[C@H](C)CN2C(=O)C(=O)Nc2cnc(N)c(C)c2)s1 (single isomer, unassigned) ), measured IC50 is < 50 nM

What the record says about Cc1cc(NC(=O)C(=O)N2C[C@H](C)CC[C@H]2c2ccc3sc(C(F)(F)F)nc3c2)cnc1N (single isomer, unassigned) [Compound 959] : IC50 is > 500 nM

The compound listed as Cc1cc(NC(=O)C(=O)N2C[C@H](C)CC[C@H]2c2cc(F)cc(F)c2)cnc1N (single isomer, unassigned) has a reported IC50 of > 500 nM

Looking up CCc1cc(NC(=O)C(=O)N2CC(C)CCC2c2ccc3sc(C4CCN(C)CC4C)nc3c2)cnc1N (racemic) [Compound 1227] , I found its IC50 recorded as < 50 nM

IC50 in this record for Cc1cc(NC(=O)C(=O)N2C[C@@H](C)CC(F)(F)[C@@H]2c2ccc(F)cc2)cnc1N (racemic) : 50 to 500 nM

IC50 for Cc1cc(NC(=O)C(=O)N2C[C@H](C)CC[C@H]2c2ccc3c(c2)CCCN3)cnc1N (single isomer, unassigned) is < 50 nM

The recorded IC50 for entry Cc1cc(NC(=O)C(=O)N2C[C@H](C)CC[C@H]2c2cccc3[nH]ccc23)cnc1N (single isomer, unassigned) equals 50 to 500 nM

Field IC50 (entry CCc1cc(NC(=O)C(=O)N2C[C@H](C)CC[C@H]2c2ccc3sc(C(F)(F)F)nc3c2)cnc1N (single isomer, unassigned) ) reads > 500 nM

Briefly, IC50 measured for CNc1ccc([C@H]2CC[C@H](C)CN2C(=O)C(=O)Nc2cncc(C(N)=O)c2)cc1 : < 50 nM

So for C[C@@H]1CC[C@H](c2ccc(NCC(=O)N(C)C)cc2)N(C(=O)C(=O)Nc2cncc(C(N)=O)c2)C1 (racemic) , the logged IC50 turned out to be > 500 nM

====

# target.entity: PRMT5 (Homo sapiens)
# Construct: purchased Viva (custom protein)
# test.protocol: PRMT5 biochemical IC50 assay with SAM as cofactor
# run.parameters: PRMT5, SAM as cofactor; read-out: SAM IC50
pIC50: −log10 of the molar value.
The reader will find reported pIC50 values listed item by item below.

response.value for Cc1cc(NC(=O)C(=O)N2C[C@H](C)CC[C@H]2c2ccc(S(C)(=O)=O)cc2)cnc1N (single isomer, unassigned) [Compound 938] (field: pIC50) = < 6.30

In plain terms, COc1ncc(NC(=O)C(=O)N2C[C@@H](C)CC[C@@H]2c2ccc(NC(C)=O)nc2)cc1C(N)=O (single isomer, unassigned) [Compound 910] has a documented pIC50 of < 6.30

Looking up CCc1cc(NC(=O)C(=O)N2C[C@H](C)CC[C@H]2c2ccccc2)cnc1N (single isomer, unassigned) [Compound 736] , I found its pIC50 recorded as 6.30 to 7.30

The recorded pIC50 for entry Cc1cc(NC(=O)C(=O)N2C[C@H](C)CC[C@H]2c2ccc3nn(C)cc3c2)cnc1N (single isomer, unassigned) [Compound 1044] equals 6.30 to 7.30

Entry C[C@H]1CC[C@H](c2ccc(C(F)(F)F)c(Cl)c2)N(C(=O)C(=O)Nc2cncc(C(N)=O)c2)C1 (single isomer, unassigned) [Compound 655] — recorded pIC50 = > 7.30

Quick note, pIC50 for Cc1cc(NC(=O)C(=O)N2C[C@H](C)CC[C@H]2c2ccc(N)cn2)cnc1N (racemic) [Compound 658] landed at 6.30 to 7.30

====

# target.entity: PRMT5 (Homo sapiens, UniProt O14744)
# Construct: purchased Viva (custom protein)
# test.protocol: PRMT5 biochemical IC50 assay with MTA as cofactor
# run.parameters: PRMT5, MTA as cofactor; read-out: MTA IC50
pIC50: −log10 of the molar value.
# pIC50 listing for each entry below

Here is how some compounds turned out for pIC50.
| compound | pIC50 |
| --- | --- |
| Cc1cc(NC(=O)C(=O)N2C[C@H](C)C[C@@H](C)[C@H]2c2ccccc2)cnc1N (single isomer, unassigned) | > 7.30 |
| C[C@H]1CC[C@H](c2ccc3sc(C(F)(F)F)nc3c2)N(C(=O)C(=O)Nc2cncc(C(N)=O)c2)C1 (single isomer, unassigned) | > 7.30 |
| Cc1cc(NC(=O)C(=O)N2C[C@H](C)C[C@H](C)[C@H]2c2ccccc2)cnc1N (single isomer, unassigned) | < 6.30 |
| Cc1cc(NC(=O)C(=O)N2CCCCC2C(C)C)cnc1N (racemic) | > 7.30 |
| CCc1cc(NC(=O)C(=O)N2C[C@H](C)CC[C@H]2c2ccc(N3CCOC4(CN(C)C4)C3)cc2)cnc1N (single isomer, unassigned) | < 6.30 |

Looking up Cc1cc(NC(=O)C(=O)N2C[C@H](C)CC[C@H]2c2cc(F)c3[nH]ncc3c2)cnc1N (single isomer, unassigned) , I see its pIC50 listed as < 6.30
